test system: Setaria viridis; test: Herbicidal activity against Setaria viridis (green foxtail) assessed as weed growth inhibition at 75 g/ha pre-emergence treatment […]; format: functional; settings: read-out: GI
Reported inhibition of growth at 75 g/ha values follow for various molecules
OBSERVED PROPERTY: inhibition of growth at 75 g/ha

1. CN1C(=O)COc2cc(F)c(N3C(=O)c4cccc(F)c4C3=O)cc21 : < 50%
2. CC1Oc2cc(F)c(N3C(=O)c4ccccc4C3=O)cc2N(CC#CI)C1=O (stereo not given) : > 80%
3. C#CCN1C(=O)COc2cc(F)c(N3C(=O)C4=C(CCCC4)C3=O)cc21 [FLUMIOXAZIN] : > 80%
4. C#CCN1C(=O)C(C)Oc2cc(F)c(N3C(=O)c4ccc(C)cc4C3=O)cc21 (stereo not given) : < 50%
5. O=C1COc2cc(F)c(N3C(=O)c4ccccc4C3=O)cc2N1CC#CBr : < 50%
6. CN1C(=O)COc2cc(F)c(N3C(=O)c4ccc(F)cc4C3=O)cc21 : < 50%
7. N#CCN1C(=O)COc2cc(F)c(N3C(=O)c4ccccc4C3=O)cc21 : < 50%
8. C#CCN1C(=O)COc2cc(F)c(N3C(=O)c4ccccc4C3=O)cc21 : < 50%
9. C#CCN1C(=O)C(C)Oc2cc(F)c(N3C(=O)c4cccc(F)c4C3=O)cc21 (stereo not given) : > 80%
10. C#CCN1C(=O)C(C)Oc2cc(F)c(N3C(=O)c4ccccc4C3=O)cc21 (stereo not given) : < 50%
